Recorded measurements of Emax, one per entry
# experimental-target: rat metabotropic glutamate receptor 5 (mGluR5) (Rattus norvegicus)
# Construct: expressed in transfected cells; host or cells: HEK 293
# Sequence (P31424 21-1171 isoform P31424-2 limits assumed): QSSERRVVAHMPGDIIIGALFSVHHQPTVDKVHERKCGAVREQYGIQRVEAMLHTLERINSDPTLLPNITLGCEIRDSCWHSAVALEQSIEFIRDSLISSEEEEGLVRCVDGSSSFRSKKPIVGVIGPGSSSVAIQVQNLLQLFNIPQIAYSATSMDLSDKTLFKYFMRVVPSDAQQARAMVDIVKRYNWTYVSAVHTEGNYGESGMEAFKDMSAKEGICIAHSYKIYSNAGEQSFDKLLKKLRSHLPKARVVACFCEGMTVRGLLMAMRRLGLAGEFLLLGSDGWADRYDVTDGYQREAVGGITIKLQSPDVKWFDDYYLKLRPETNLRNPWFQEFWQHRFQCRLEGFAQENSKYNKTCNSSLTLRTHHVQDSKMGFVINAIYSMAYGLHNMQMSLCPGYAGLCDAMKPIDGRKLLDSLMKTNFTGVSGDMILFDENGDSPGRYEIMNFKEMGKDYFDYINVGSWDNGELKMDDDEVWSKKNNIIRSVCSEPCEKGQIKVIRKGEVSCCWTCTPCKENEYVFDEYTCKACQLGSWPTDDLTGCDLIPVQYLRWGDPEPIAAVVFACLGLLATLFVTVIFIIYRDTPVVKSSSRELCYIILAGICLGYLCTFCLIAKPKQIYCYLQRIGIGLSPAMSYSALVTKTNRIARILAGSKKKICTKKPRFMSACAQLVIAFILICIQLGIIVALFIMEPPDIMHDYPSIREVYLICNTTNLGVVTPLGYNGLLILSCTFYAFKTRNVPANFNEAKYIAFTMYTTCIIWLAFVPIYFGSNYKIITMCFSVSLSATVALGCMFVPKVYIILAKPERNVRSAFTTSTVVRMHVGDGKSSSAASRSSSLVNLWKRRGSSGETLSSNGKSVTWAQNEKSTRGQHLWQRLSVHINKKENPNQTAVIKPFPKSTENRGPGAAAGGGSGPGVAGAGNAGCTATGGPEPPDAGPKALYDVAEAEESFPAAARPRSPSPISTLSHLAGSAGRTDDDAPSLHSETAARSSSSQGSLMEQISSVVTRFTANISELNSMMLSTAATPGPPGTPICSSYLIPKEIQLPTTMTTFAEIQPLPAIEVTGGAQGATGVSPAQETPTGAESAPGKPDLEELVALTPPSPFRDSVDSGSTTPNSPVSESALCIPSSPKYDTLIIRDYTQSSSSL
# assay-notes: Calcium mobilization assay (FLIPR) for negative or positive allosteric activity, HEK 293 cells
# Assay type: cell-based
# condition-set: HEK293, negative allosteric modulation, inhibition of EC80 glutamate response; read-out: FLIPR maximum inhibition
# Excerpt: The cDNA for rat metabotropic glutamate receptor 5 (mGluR5) was a generous gift from S. Nakanishi (Kyoto University, Kyoto, Japan). […] Basal fluorescence is monitored in a fluorometric imaging plate reader (FLIPR) (Molecular Devices, Sunnyvale, Calif.) with an excitation wavelength of 488 nm and an emission range of 500 to 560 nm. Laser excitation energy was adjusted so that basal fluorescence readings were approximately 10,000 relative fluorescent units. […]

Cc1cccc(C(=O)NC23CC4CC(C2)CC(NC(=O)c2cccc(N(C)CCN(C)C)n2)(C4)C3)n1
63 to 99%

Could you share what Emax was measured for Cc1cccc(C(=O)NC23CC4CC(CC(NC(=O)c5ccncc5)(C4)C2)C3)n1 , tested on rat metabotropic glutamate receptor 5 (mGluR5) (Rattus norvegicus)? 70 to 99%

Could you share what Emax was measured for Cc1cncc(C(=O)NC23CC4CC(CC(NC(=O)c5ccnc(Br)c5)(C4)C2)C3)n1 , tested on rat metabotropic glutamate receptor 5 (mGluR5) (Rattus norvegicus)? 63 to 99%

Could you share what Emax was measured for Cc1cncc(C(=O)NC23CC4CC(CC(NC(=O)c5ccc(F)cc5)(C4)C2)C3)n1 , tested on rat metabotropic glutamate receptor 5 (mGluR5) (Rattus norvegicus)? 63 to 99%
